Tested on: MCF-7 cell line
ASSAY PROCEDURE: MTT cytotoxicity assay (24 h), MCF-7 cell line
Assay type: cell-based
MEASUREMENT CONTEXT: Homo sapiens, MCF7, 24 h, MTT, 24 h, MCF-7 cell line; means of quartet assays
Could you mark each record Condition met if its IC50 falls strictly under 60 µM, and Condition not met if it equals or exceeds it?

A selection of reference data follows.
[[record]]
molecule = "CC(C)Nc1nnc(SCC(=O)N2N=C(c3ccccc3)CC2c2ccc([N+](=O)[O-])cc2)s1 (stereo not shown)"
assigned_class = "Condition not met"

[[record]]
molecule = "Cc1ccc(Nc2nnc(SCC(=O)N3N=C(c4ccccc4)CC3c3ccc([N+](=O)[O-])cc3)s2)cc1 (stereo not shown)"
assigned_class = "Condition not met"

[[record]]
molecule = "C=CCNc1nnc(SCC(=O)N2N=C(c3ccccc3)CC2c2ccc([N+](=O)[O-])cc2)s1 (stereo not shown)"
assigned_class = "Condition met"

[[record]]
molecule = "CCNc1nnc(SCC(=O)N2N=C(c3ccccc3)CC2c2ccc([N+](=O)[O-])cc2)s1 (stereo not shown)"
assigned_class = "Condition not met"

[[record]]
molecule = "O=C(CSc1nnc(Nc2ccccc2)s1)N1N=C(c2ccccc2)CC1c1ccc([N+](=O)[O-])cc1 (stereo not shown)"
assigned_class = "Condition met"


For this molecule, is IC50 lower than 60 µM? O=C(CSc1nnc(Nc2ccc(Cl)cc2)s1)N1N=C(c2ccccc2)CC1c1ccc([N+](=O)[O-])cc1 (stereo not shown)
Condition not met

----------
Tested on: A549 cell line
ASSAY PROCEDURE: MTT cytotoxicity assay (24 h), A549 cell line
Format: cell-based
MEASUREMENT CONTEXT: selectivity index, NIH3T3 vs A549
PROPERTY: SI for A549
One number for each entry.

[[record]]
compound = "O=C(CSc1nnc(Nc2ccccc2)s1)N1N=C(c2ccccc2)CC1c1ccc([N+](=O)[O-])cc1 (centres unmarked)"
property = "SI for A549"
numeric_value = 7.22


# return SI for A549 of CC(C)Nc1nnc(SCC(=O)N2N=C(c3ccccc3)CC2c2ccc([N+](=O)[O-])cc2)s1 (centres unmarked) (system: A549 cell line)
1.19

----------
Task for the reader: assign each of the following molecules its reported pIC50.
Tested on: MCF-7 cell line
ASSAY PROCEDURE: MTT cytotoxicity assay (24 h), MCF-7 cell line
Assay type: cell-based
MEASUREMENT CONTEXT: Homo sapiens, MCF7, 24 h, MTT, 24 h, MCF-7 cell line; means of quartet assays
Give bare numbers, as −log10 of the molar value.

[[record]]
molecule = "CCCNc1nnc(SCC(=O)N2N=C(c3ccccc3)CC2c2ccc([N+](=O)[O-])cc2)s1 (stereo not shown)"
numeric_value = 4.20


Fill in pIC50 for record COc1cccc2c1C(=O)c1c(O)c3c(c(O)c1C2=O)C[C@@](O)(C(=O)CO)C[C@@H]3O[C@H]1C[C@H](N)[C@H](O)[C@H](C)O1 [doxorubicin, reference compound]
5.80

----------
Assign SI for A549 to each entry below.
System: A549 cell line
ASSAY PROCEDURE: MTT cytotoxicity assay (24 h), A549 cell line
Type: cell-based
MEASUREMENT CONTEXT: selectivity index, NIH3T3 vs A549

[[record]]
compound = "COc1ccc(Nc2nnc(SCC(=O)N3N=C(c4ccccc4)CC3c3ccc([N+](=O)[O-])cc3)s2)cc1 (stereo not drawn) [Compound 6i]"
result = ">6.01"


Please supply SI for A549 for each of the following items, keeping them in order.
1. Cc1ccc(Nc2nnc(SCC(=O)N3N=C(c4ccccc4)CC3c3ccc([N+](=O)[O-])cc3)s2)cc1 (stereo not drawn) [Compound 6h]
2. COc1cccc2c1C(=O)c1c(O)c3c(c(O)c1C2=O)C[C@@](O)(C(=O)CO)C[C@@H]3O[C@H]1C[C@H](N)[C@H](O)[C@H](C)O1 [doxorubicin, reference compound]

>3.44
>374.95
